Reference source for all entries: patent US20240116946A1

biological target: recombinant SARS-CoV-2 Main protease (Mpro) (Severe acute respiratory syndrome coronavirus 2 (2019-nCoV) (SARS-CoV-2)); experiment: Cov Mpro Biochemical IC50 Assay; settings: recombinant SARS-CoV-2 Mpro 7.5 nM, fluorogenic peptide substrate 40 μM; read-out: MPro IC50
Can you tell me pIC50 for the items I'm about to list?
Give bare numbers, as −log10 of the molar value.

compound: COc1cnc(Cl)c(-c2cc3[nH]c(=O)n(-c4cncc5ccccc45)c(=O)c3s2)c1 (single isomer, unassigned) [Example 629]
quantityKind: pIC50
reading: 7.37

Moving on to another compound below.
Quick note, pIC50 for Cn1ncc2cncc(-n3c(=O)[nH]c4cc(-c5cc(F)ccc5C#N)sc4c3=O)c21 [Example 700] landed at 7.26

====

target: recombinant SARS-CoV-2 Main protease (Mpro) (Severe acute respiratory syndrome coronavirus 2 (2019-nCoV) (SARS-CoV-2)); experiment: Cov Mpro Biochemical IC50 Assay; details: recombinant SARS-CoV-2 Mpro, fluorogenic peptide substrate; read-out: MPro IC50
Field: label. Allowed values: fulfilled (IC50 < 200 nM) or not fulfilled (IC50 >= 200 nM).

Example results:
molecule: Cc1cc(-c2cccc(Cl)c2-c2ccc3c(=O)n(-c4cncc5ccccc45)c(=O)[nH]c3c2)cn2nnnc12
assignedClass: fulfilled

molecule: CC1(C)Cc2c(-c3cccc(Cl)c3-c3ccc4c(=O)n(-c5cncc6ccccc56)c(=O)[nH]c4c3)cnn2C1
assignedClass: fulfilled

molecule: COc1cc(-c2cc3[nH]c(=O)n(-c4cncc5ccccc45)c(=O)c3s2)c(Cl)cc1F
assignedClass: fulfilled

molecule: COCc1cccc(Cl)c1-c1ccc2c(=O)n(-c3cncc4ccccc34)c(=O)[nH]c2c1
assignedClass: not fulfilled

molecule: Cc1nnn(C)c1-c1cccc(Cl)c1-c1ccc2c(=O)n(-c3cncc4ccccc34)c(=O)[nH]c2c1
assignedClass: fulfilled

molecule: Cc1nccnc1COc1cccc(Cl)c1-c1ccc2c(=O)n(-c3cncc4ccccc34)c(=O)[nH]c2c1
assignedClass: not fulfilled

Here's the next entry for you.
Ask: is_below(IC50, 200 nM) for `Cc1cccc(-c2cc3[nH]c(=O)n(-c4cncc5ccccc45)c(=O)c3s2)c1Cl` ?
Result: not fulfilled

====

Can you tell me pIC50 for the items I'm about to list?
target: recombinant SARS-CoV-2 Main protease (Mpro) (Severe acute respiratory syndrome coronavirus 2 (2019-nCoV) (SARS-CoV-2), UniProt P0DTD1); experiment: Cov Mpro Biochemical IC50 Assay; conditions: recombinant SARS-CoV-2 Mpro 7.5 nM, fluorogenic peptide substrate 40 μM; read-out: MPro IC50
Answers are plain numbers, as −log10 of the molar value.

molecule: COc1cc(-c2cc3c(s2)c(=O)n(-c2cncc4cccnc24)c(=O)n3CC#N)c(Cl)cc1F
pIC50: 8.36

Moving on to another molecule below.
Quick note, pIC50 for COc1cc(-c2cc3[nH]c(=O)n(-c4cncc5cccc(C)c45)c(=O)c3s2)c(Cl)cc1F (single isomer, unassigned) [Example 996] landed at 5.19

====

target: recombinant SARS-CoV-2 Main protease (Mpro) (Severe acute respiratory syndrome coronavirus 2 (2019-nCoV) (SARS-CoV-2), UniProt P0DTD1); test: Cov Mpro Biochemical IC50 Assay; conditions: recombinant SARS-CoV-2 Mpro 7.5 nM, fluorogenic peptide substrate 40 μM; read-out: MPro IC50
Can you tell me IC50 for the items I'm about to list?
Give bare numbers, in µM.

Use the examples below as a reference point.
molecule: N#CCCn1c(=O)n(-c2cncc3nnn(C4CC4)c23)c(=O)c2sc(-c3ccccc3Cl)cc21
reading: 0.0176
--
molecule: N#CCCn1c(=O)n(-c2cccnc2)c(=O)c2sc(-c3ccc(F)cc3Cl)cc21
reading: 0.0326
--
molecule: COc1cc(-c2cc3c(s2)c(=O)n(-c2cncc(Cl)c2Cl)c(=O)n3CCC#N)c(Cl)cc1F
reading: 0.0122

Moving on to another compound below.
Quick note, IC50 for `COc1ccc(C#N)c(-c2cc3[nH]c(=O)n(-c4cncc5c4OCCC5)c(=O)c3s2)c1` landed at 0.0279
